Assay Procedure: clinical
Type: in vivo, human
Condition Set: human, plasma, oral, 30 mg, single dose 30 mg, adults (12), mean (%CV); read-out: Cmax
Endpoint: Cmax (ng/mL)
Express the result in ng/mL but write the number alone.

Fill blank: measured Cmax of the molecule `C[C@@]1(c2nc(NC(=O)c3ncc(C(F)(F)F)cc3Cl)ccc2F)CO[C@@](C)(C(F)(F)F)C(N)=N1` is ____.
65.7

====

Assay Procedure: clinical
Type: in vivo, human
Condition Set: human, plasma, oral, 75 mg, food effect, 75 mg Fasted (10), adults, mean (%CV); read-out: Cmax
Endpoint: Cmax (ng/mL)
Express the result in ng/mL but write the number alone.

Fill blank: measured Cmax of the compound `C[C@@]1(c2nc(NC(=O)c3ncc(C(F)(F)F)cc3Cl)ccc2F)CO[C@@](C)(C(F)(F)F)C(N)=N1` is ____.
164
